System: A498 renal
Assay: NCI-60 one-dose screen, 48 h (100 = growth as untreated, 0 = no growth, -100 = all killed)
Settings: 10 µM
Experimental: Growth inhibition of the A498 human tumor cell line is measured as a screen for anti-cancer activity. Cells are grown in 96 well plates and exposed to the test compound for 48 hours. Compounds are tested at a single concentration, which is 10^-5 M for most compounds. The reported endpoint is percent growth (GI% or GIPRCNT), where numbers from 0 - 100% represent growth inhibition, and numbers from -100% - 0 represent cell death. For example, a value of 40 represents 60% growth inhibition. […]
About 83,000 compounds went through this panel and 20% of them were active in at least one assay; those are over-represented in the sample as a whole.
Each entry below carries its recorded growth.
Your answer is read as %, so omit the unit and give the number.

| compound | outcome measure | value observed |
| --- | --- | --- |
| COC(=O)c1c(C)nc(Nc2nc3ccccc3s2)nc1-c1ccc(Cl)cc1Cl | growth | 100 |
| CNC(=O)c1cc(Oc2ccc(NC(=O)Nc3ccc(Cl)c(OC4CCCCC4)c3)c(F)c2)ccn1 | growth | 57.5 |
| O=C(Nc1cccc(Cl)c1)Nc1cc2ncncc2cc1OCc1cccc(F)c1 | growth | -9.36 |
| CC(=O)CS(C)(=O)=O | growth | 98.8 |
| COc1ccc(C2C=C(c3ccc(OC)c(OC)c3)N=C3SC=CN32)c(Br)c1 (stereo unspecified) | growth | 74 |

Let us examine a further case.
Query: Which growth value belongs to "Clc1cc(Cl)c(OCCCCCCN2CCNCC2)c(Cl)c1" ?
Reply: 48.1

Measured values drawn from PubChem BioAssay (NCI) for this set.
